system: Cryptococcus neoformans; conditions: Concentration 32 ug.mL-1; ASSAY_TEST Inhibition of Fungal Growth; detection method Resazurin; Absorption (OD600-OD570); plate type 384well; NBS; CORNING #3640
Description: Antifungal activity against Cryptococcus neoformans H99 ATCC 208821 (CO-ADD:FG_002); MIC in YNB media using NBS plates, by Resazurin OD(600-570)
Measured potencies and affinities stand elsewhere.
I'd appreciate it if you marked entries true when Inhibition is lower than -10% and false when it is not.

SMILES DATA | TEST SYSTEM | LABEL
Cc1cc(C)cc(Nc2nc(C)cc3nn(CC(=O)NC4CCCC4)c(=O)n23)c1 | Cryptococcus neoformans | false
Cc1ccc(Sc2nccn3c(=O)n(CC(=O)Nc4ccc(F)c(Cl)c4)nc23)c(C)c1 | Cryptococcus neoformans | true
CC(C)n1c(=O)c2ccc(C(=O)NC3CCCC3)cc2n2c(=O)n(Cc3cccc(C(F)(F)F)c3)nc12 | Cryptococcus neoformans | true

Query string: Take the molecule Cc1cccc(Oc2nccn3c(=O)n(CC(=O)Nc4cccc(C(F)(F)F)c4)nc23)c1C and say whether its Inhibition is less than -10%.
Result string: false

Query string: Take the molecule CC(=O)c1ccc(NC(=O)Cn2nc3c(SC4CCCCC4)nccn3c2=O)cc1 and say whether its Inhibition is less than -10%.
Result string: true

====

system: Klebsiella pneumoniae; details: Concentration 32 ug.mL-1;; ASSAY_TEST Inhibition of Bacterial Growth; detection method Absorption (OD600); MEDIA CAMHB; plate type 384well; NBS; CORNING #3640; time 18 hr
Description: Antibacterial activity against Klebsiella pneumoniae MDR ATCC 70063 (CO-ADD:GN_003); MIC in CAMBH media using NBS plates, by OD(600)
Results with a measured potency or affinity are listed apart.
ASSAY METRIC: Inhibition (%)
Number in %, nothing else.

# annotated cases, reported Inhibition shown
MOLECULE | VALUE UNITS | Inhibition
CC(C)c1nnc2c(=O)n(CC(=O)Nc3ccc(Cl)cc3)c3ccccc3n12 | % | 16.79
COc1ccc(CNC(=O)Cn2nc3c4cc(-c5ccc(OC)cc5)nn4ccn3c2=O)cc1 | % | 9.14
COc1ccc(NC(=O)Cn2nc3c4cc(-c5ccc(C)cc5)nn4ccn3c2=O)cc1Cl | % | -5.12
Cc1ccc(C)c(NC(=O)Cn2nc3c(N4CCCC(C)C4)nccn3c2=O)c1 (stereo not given) | % | 3.52
COc1ccccc1NC(=O)Cn1nc2c(Sc3ccccc3)nccn2c1=O | % | -2.04
CCOc1ccc(NC(=O)Cn2nc3c4cc(-c5ccc(Cl)cc5)nn4ccn3c2=O)cc1 | % | 10.46
CCCN(C)c1nccn2c(=O)n(CC(=O)Nc3cccc(C(C)=O)c3)nc12 | % | 4.82
CC(=O)c1ccc(NC(=O)Cn2nc3c(SC4CCCCC4)nccn3c2=O)cc1 | % | 4.71

Query string: Query for Klebsiella pneumoniae: what Inhibition does the record show for Cc1ccccc1Nc1cc(C)n2c(=O)n(CCOc3ccc(F)cc3)nc2n1 ?
Result string: 9.7

Query string: Query for Klebsiella pneumoniae: what Inhibition does the record show for O=C(Cn1nc2c(SC3CCCCC3)nccn2c1=O)Nc1ccccc1Br ?
Result string: 3.34

Query string: Query for Klebsiella pneumoniae: what Inhibition does the record show for COc1cccc(-n2ccn3c(SCC(=O)Nc4ccc(C(C)C)cc4)nnc3c2=O)c1 ?
Result string: -7.28

Query string: Query for Klebsiella pneumoniae: what Inhibition does the record show for Cc1cc(C)cc(NC(=O)CSc2nnc3c(=O)n(-c4ccc(Br)cc4)ccn23)c1 ?
Result string: 11.44

Query string: Query for Klebsiella pneumoniae: what Inhibition does the record show for CCCc1nnc2c(=O)n(CC(=O)Nc3cccc(Br)c3)c3ccccc3n12 ?
Result string: 0.59

Query string: Query for Klebsiella pneumoniae: what Inhibition does the record show for Cc1ccc(NC(=O)Cn2nc3c4c5c(sc4ncn3c2=O)CCCC5)c(Cl)c1 ?
Result string: 3.19

Query string: Query for Klebsiella pneumoniae: what Inhibition does the record show for Cc1ccc(NC(=O)Cn2nc3ccc(SC(C)C)nn3c2=O)c(C)c1 ?
Result string: 11.09
